Experiment: self-splicing fitness, log relative to wild type (ln ratio); higher = more splicing; Tetrahymena group I intron in knt gene, E. coli kanamycin selection, DiMSum; sequences stand for … in CUCUCU…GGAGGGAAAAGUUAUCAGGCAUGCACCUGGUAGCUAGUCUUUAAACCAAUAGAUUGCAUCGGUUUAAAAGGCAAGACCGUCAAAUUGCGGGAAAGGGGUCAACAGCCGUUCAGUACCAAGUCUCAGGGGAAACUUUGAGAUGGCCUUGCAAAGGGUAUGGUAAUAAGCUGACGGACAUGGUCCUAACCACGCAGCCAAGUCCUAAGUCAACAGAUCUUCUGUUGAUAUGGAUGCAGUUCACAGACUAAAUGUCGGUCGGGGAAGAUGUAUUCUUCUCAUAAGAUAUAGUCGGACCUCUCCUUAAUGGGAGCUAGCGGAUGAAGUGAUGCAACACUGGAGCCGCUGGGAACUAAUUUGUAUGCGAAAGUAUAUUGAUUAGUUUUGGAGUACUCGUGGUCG;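 also: selection with 25 µg/mL kanamycin versus none on LB agar overnight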
Details: 37 °C
property: self-splicing fitness (ln)

- chain: "CAUCAGCAAUAUUACGUGCG"
  testValue: 0.355
- chain: "AGAUAGCAAUAUUACGAGCU"
  testValue: -1.02
- chain: "UUACAGCAAUAUUACGGUGG"
  testValue: -0.457

Can you look up the measured self-splicing fitness (ln) of CGACAGCAAUAUUACGUGAA for me?
-2.02

Can you look up the measured self-splicing fitness (ln) of GUCUAGCAAUAUUACGAUUU for me?
0.36

Can you look up the measured self-splicing fitness (ln) of GACCAGCAAUAUUACGGCAG for me?
-3.28

Can you look up the measured self-splicing fitness (ln) of CCUGAGCAAUAUUACGCUCG for me?
-1.7

Can you look up the measured self-splicing fitness (ln) of CGCUAGCAAUAUUACGCGGA for me?
-1.73

Can you look up the measured self-splicing fitness (ln) of UAUUAGCAAUAUUACGCGGG for me?
-1.59

====

Experiment: self-splicing fitness, log relative to wild type (ln ratio); higher = more splicing; Tetrahymena group I intron in knt gene, E. coli kanamycin selection, DiMSum; sequences stand for … in CUCUCU…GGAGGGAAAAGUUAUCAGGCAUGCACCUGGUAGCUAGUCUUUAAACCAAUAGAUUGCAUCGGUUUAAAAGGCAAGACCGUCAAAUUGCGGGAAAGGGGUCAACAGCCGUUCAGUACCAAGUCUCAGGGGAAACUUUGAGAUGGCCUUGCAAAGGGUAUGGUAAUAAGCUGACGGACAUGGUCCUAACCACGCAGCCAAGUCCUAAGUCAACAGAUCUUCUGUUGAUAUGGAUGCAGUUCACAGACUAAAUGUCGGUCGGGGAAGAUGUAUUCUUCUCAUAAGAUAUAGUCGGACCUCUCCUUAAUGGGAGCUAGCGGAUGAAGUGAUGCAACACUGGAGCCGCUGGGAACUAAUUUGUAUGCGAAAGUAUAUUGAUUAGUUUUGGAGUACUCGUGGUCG
Conditions: 30 °C
property: self-splicing fitness (ln)
API doc: respond with a numeric literal and nothing else, no unit.

Known results for sequences:
- chain: "UUCAAGCAAUAUUACGGAGG"
  property: "self-splicing fitness (ln)"
  testValue: -4.04
- chain: "GACGAGCAAUAUUACGGCCC"
  property: "self-splicing fitness (ln)"
  testValue: -0.0683
- chain: "GGACAGCAAUAUUACGUGAA"
  property: "self-splicing fitness (ln)"
  testValue: -0.306

Can you look up the measured self-splicing fitness (ln) of CAGGAGCAAUAUUACGUAUC for me?
-3.11

Can you look up the measured self-splicing fitness (ln) of AUGGAGCAAUAUUACGCAAU for me?
-1.33

Can you look up the measured self-splicing fitness (ln) of UUCAAGCAAUAUUACGUCUG for me?
-3.08

Can you look up the measured self-splicing fitness (ln) of UCCCAGCAAUAUUACGUUCG for me?
-3.65

Can you look up the measured self-splicing fitness (ln) of GACCAGCAAUAUUACGACAC for me?
-0.384
